readout: melting point

| compound | result |
| --- | --- |
| ON=C(c1ccccc1)c1ccc(C(=NO)c2ccccc2)cc1 | 230 to 233 °C |
| N#Cc1cccc(-c2cc(-c3ccccc3C(=O)O)on2)c1 | 195 to 196 °C |
| COc1ccc(CN(C)CCOc2ccc(NC(=O)c3cccc4c(=O)c5cc(SC)ccc5[nH]c34)cc2)cc1OC | 160 °C |
| COc1cc2c(cc1OCc1ccccc1)CCN(Cc1cc(OC)c(OC)c(OC)c1)C2 | 144 to 145 °C |
| COc1c(C)c2c(c(OS(C)(=O)=O)c1C/C=C(/Cl)CBr)C(=O)OC2 | 146 to 148 °C |
| O=C(O)CC(NC(=O)c1ccccc1)c1ccccc1F (stereo not given) | 202 to 205 °C |
| CCCc1c(OCc2cc(Br)cn3c(=O)c(CCC(=O)O)cnc23)ccc(C(C)=O)c1O | 239 to 242 °C |
| CC(C)(C)c1csc(-c2cc3cc(CC(C(=O)O)C(=O)O)ccc3o2)n1 | > 320 °C |
| CCCn1nc2c(N)nc3ncccc3c2c1CC1CCOCC1 | 252 to 255 °C |
| O=C1NCc2c(-c3ccccc3)cccc2N1c1ccccc1 | 234 to 235 °C |
| Cc1nc2ncnn2c(N2CCC(C)CC2)c1C1CCCC1 | 145 °C |
| Cc1ccnc(-c2cccc([N+](=O)[O-])c2)c1 | 80 to 82 °C |
| Cn1c(N2CCOC(c3noc(-c4ccccc4)n3)C2)nc(-c2ccncn2)cc1=O (stereo not given) | 208 °C |
| CCOc1cc(O)cc2c1C(=O)N(COC(=O)c1c(Cl)cccc1Cl)S2(=O)=O | 216 to 217 °C |
| CCCNc1nnc(C)o1 | 46.5 to 47.5 °C |
| CC(=O)OC1Cc2ccc(N)cc2C1 (stereo not given) | 237 to 239 °C |
| C=C(C)C(=O)Oc1ccc2c(c1)CCc1cc(OC(=O)C(=C)C)ccc1-2 | 116 °C |
| O=C(CC(CCCc1ccccc1)C(=O)O)c1ccc(Br)cc1 (stereo not given) | 147 °C |
| N#Cc1ccc(C(=O)N2CCC3(CC2)C(=O)NC(=O)N3Cc2ccccc2)cc1 | 207 to 209 °C |
| COC(=O)c1ccc(NC(=O)C(CC2CCCC2)c2ccc(F)c(C(F)(F)F)c2)nc1 (stereo not given) | 270 to 275 °C |
| N#CCSc1ccc([N+](=O)[O-])cc1 | 77 to 79 °C |
| OCc1ccc(-c2ccc3nc(-c4ccccc4)cn3c2)cc1 | 238 to 240 °C |
| COc1ccc2oc(Cc3cccc(C(F)(F)F)c3)c(CC#N)c2c1 | 116 °C |
| CC(=O)CC(=O)Nc1ccc(C(F)(F)F)cc1 | 144 to 145 °C |
| CNC(=O)c1cc2c(nc(C)n2C)c2c1CCC1(Cc3ccccc3C1)N2 | 237 to 238 °C |
| O=C(CCCN1CCC(c2ccc(Cl)cc2)CC1)c1ccc2c(c1)CCN(Cc1ccccc1)CC2 | 99 to 100 °C |
| CCOCC1(O)CCN(c2ccc(N3C[C@H](CNC(C)=O)OC3=O)cc2F)CC1 | 76 to 78 °C |
| CC(C)Oc1cccc2c1O[C@@H](COS(C)(=O)=O)CC2 | 77 to 78 °C |
| CCC(C)N(C)C(=O)c1cc(-c2ccccc2)cc2ccccc12 (stereo not given) | 125 °C |
| O[C@@H](CNC1CN(C(c2ccccc2)c2ccccc2)C1)COc1ccc(OCc2ccccc2)cc1 | 109 to 110 °C |
| CN(C(C(=O)NO)C(C)(C)CN1C(=O)c2ccccc2C1=O)S(=O)(=O)c1ccc(Oc2ccccc2)cc1 (stereo not given) | 189 to 190 °C |
| CC(C)(C)OC(=O)N1[C@@H](C(=O)O)CC[C@H]1c1ccccc1 (racemic) | 113 to 117 °C |
| CCOC(=O)Oc1ccc(C(=O)Oc2ccc(C#N)cc2)cc1 | 145 °C |
| CNC(=O)[C@H](Cc1ccc2ccccc2c1)NC(=O)C(CCOc1c(F)c(F)c(F)c(F)c1F)CC(=O)O (stereo not given in full) | 68 to 69 °C |
| COc1ccccc1NC(=O)Nc1nc(N(CCC(=O)O)Cc2ccc(Cl)c(Cl)c2)nc(=O)[nH]1 | 188 °C |
| CC(C)(C)c1cc(-c2nn(CC(=O)N3CCOCC3)c3ncccc23)cc(C(C)(C)C)c1O | 207 to 209 °C |
| CCCOc1ccccc1-c1nc2nnc(SC)nc2c(=O)[nH]1 | 195 to 197 °C |
| CCc1nc(NC(=O)c2cc(Br)ccc2O)sc1-c1ccccc1 | 224 to 225 °C |
| CCOC(=O)c1cc2cc(F)c(F)cc2nc1Cl | 108 °C |
| Cc1ccc(S(=O)(=O)NC(=O)OCCc2ccc(-n3c(CCCc4ccncc4)nc4cc(C(F)(F)F)c(Cl)cc43)cc2)cc1 | 80 to 87 °C |

All values here come from a melting point compilation (Tetko et al.; mined from patent text by program, amines drawn as free bases though some values may be those of a salt).
